- experimentDescription: SK-BR-3 cell growth inhibitors, pilot screen, 24 h, human (AID 572);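 further: compound exposure lasted between 18 and 24 h rather than exactly 24 h; 100% = carrier-treated control wells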
- experimentalConditions: SK-BR-3 viability, CellTiter-Glo luminescence, at 10 µM, stronger effect = lower value
I'd be grateful if you could share measured viability for these entries.
Give the value, in units of %, as a plain number.

Give reported viability value for CS(=O)(=O)N(CC(=O)NCc1ccncc1)Cc1ccc(Cl)cc1
104

Give reported viability value for CCOc1ccc(S(=O)(=O)N(C)C)cc1-c1nc2c(C(C)(C)C)nn(C)c2c(=O)[nH]1
99

Give reported viability value for CN(C(=O)C1CCOC1)c1nnc(-c2cccnc2)s1 (stereo unspecified)
92

Give reported viability value for O=C(Cn1cnc2c(cnn2-c2ccc(F)cc2)c1=O)N1CCN(c2ccccc2)CC1
97

Give reported viability value for CS(=O)(=O)NCc1nnc(SCC(=O)NC2CCCCC2)n1-c1ccc(F)cc1
98.5

Give reported viability value for COc1cc2c(cc1NC(=O)CSc1nnc(Cc3cccs3)n1C)oc1ccccc12
74

Give reported viability value for COc1cccc2sc(NC(=O)c3ccc(S(=O)(=O)N4CCOCC4)cc3)nc12
113

Give reported viability value for Cc1ccc2c(c1)C(O)(CC(=O)c1ccc3c(c1)OCO3)C(=O)N2 (stereo unspecified)
78

Give reported viability value for COC(=O)CN(c1ccc(F)cc1)S(=O)(=O)c1ccccc1
91.5

Give reported viability value for CCCc1ccc(Oc2cn[nH]c2-c2ccc(O)c(C)c2O)cc1
106

Give reported viability value for COc1ccc(CSCCN)cc1Cl
113

###

I'd be grateful if you could share measured viability for these entries.
- experimentDescription: reversal of MRP1-mediated doxorubicin resistance, pilot screen, H69AR cells, doxorubicin co-treatment (AID 601)
- experimentalConditions: H69AR cells, CellTiter-Glo, 72 h; compound alone cytotoxicity; at 10 µM
Give the value, in units of %, as a plain number.

Give reported viability value for CCOc1ccccc1Nc1nc2ccccc2[nH]1
94.2

Give reported viability value for COc1ccc(C(=O)Nc2cccnc2)cc1C(=O)Nc1cccnc1
97.4

Give reported viability value for Cn1c(=O)cc(SCC(=O)NCC2CCCO2)c2ccc(Cl)cc21 (centres undefined)
85.1

Give reported viability value for COc1cccc(-c2nnn(CC(=O)O)n2)c1
91

Give reported viability value for N#Cc1nc(-c2cccs2)oc1NCc1ccc(Cl)cc1
73.8

Give reported viability value for COc1ccc(C2(C(=O)Nc3c(C)n(C)n(-c4ccccc4)c3=O)CCCC2)cc1OC
106

Give reported viability value for CC1(C2(O)CC(c3ccccc3)ON2)CCCCC1 (centres undefined)
84.1

Give reported viability value for C[C@H](CCC(=O)O)[C@H]1CC[C@H]2[C@@H]3C(=O)C[C@@H]4CC(=O)CC[C@]4(C)[C@H]3CC(=O)[C@]12C
96

Give reported viability value for CCOC(=O)Cc1nnc2c(Nc3ccccc3F)nc3nonc3n12
12.6

Give reported viability value for COc1cc2c(cc1OC)CN(Cc1nc3ccsc3c(=O)[nH]1)CC2
92.2

Give reported viability value for COc1cccc(-c2cc(C(=O)Nc3c(C)nn(Cc4ccccc4)c3C)no2)c1
98.2

Give reported viability value for COc1cc(NC(=O)c2ccco2)c(OC)cc1NC(=O)CCC(=O)Nc1cc(C)cc(C)c1
53.1

Give reported viability value for CCOC(=O)C(C#N)C(c1cccnc1)c1c(C)[nH][nH]c1=O (centres undefined)
105

Give reported viability value for COC(=O)c1cc(S(=O)(=O)N2CCOCC2)c(N2CCOCC2)cc1N1CCOCC1
85.5

Give reported viability value for CCn1cc(C(=O)O)c(=O)c2cc(F)c(N3CCNCC3)nc21
105

Give reported viability value for Nc1cc(=O)[nH]c(SCC(=O)Nc2ccc(Br)cc2)n1
90.5

Give reported viability value for Cc1cc(N2C(=O)C(=O)/C(=C(/O)c3ccc(F)cc3)C2c2ccc(F)cc2)no1 (centres undefined)
91.3

Give reported viability value for CN(C)C(=O)CN(C)S(=O)(=O)c1ccc(Cl)cc1
97.9

Give reported viability value for Nc1nonc1C(=O)NCCNCc1cc(Br)ccc1OCc1ccccc1F
66.8

Give reported viability value for CCc1c(C)nc2ncnn2c1N1CCC(C(=O)NCc2cccc(OC)c2)CC1
89.9

Give reported viability value for Cc1nc(SCC(=O)c2c[nH]c3ccccc23)n[nH]1
95.9

Give reported viability value for Cc1ccc(-n2ncc3c(N4CCN(c5ccc(F)cc5)CC4)ncnc32)c(C)c1
71.4

Give reported viability value for CCOc1ccccc1N1CCN(c2nc3ccccc3nc2C(C#N)C(=O)OC)CC1 (centres undefined)
83.9

Give reported viability value for O=C(CCc1ccc(S(=O)(=O)N2CCOCC2)cc1)NCCc1ccccn1
87.9

Give reported viability value for Cc1nnc(SCC(=O)N2CCC(C(N)=O)CC2)s1
91.2

Give reported viability value for CCSc1nc2ccccc2n1CCC(=O)O
109

Give reported viability value for COC(=O)c1c(NC(=O)CCc2ccc(C)o2)sc(C)c1C
81.7

Give reported viability value for Cn1c(Cc2csc(N)n2)nnc1SCC(=O)NC1CCCCC1
96.8

Give reported viability value for c1cc2c(cc1Nc1nc(-c3ccc4c(c3)OCO4)cs1)OCCO2
90.5

Give reported viability value for CCCCc1nc2n[nH]c(N)c2c2c1CCCC2
92.3

Give reported viability value for O=C(CN(C1CCCCC1)S(=O)(=O)c1ccccc1)NCc1cccnc1
96

Give reported viability value for O=C(CCn1c(=O)oc2ccccc21)NCCN1CCc2ccccc2C1
94.4

Give reported viability value for CCOc1ccc(S(=O)(=O)Nc2ccc(Cl)cn2)c(C)c1C
87.6

Give reported viability value for O=C(Nc1ccc(N2CCCC2=O)cc1)c1cccc(F)c1
99.9

Give reported viability value for CCOC(=O)c1nnc2cc(-c3ccc(Br)cc3)nn2c1C
49.7

Give reported viability value for CC[C@H]1OC(=O)C[C@@H](O)[C@H](C)[C@@H](O[C@@H]2O[C@H](C)C[C@H](N(C)C)[C@H]2O)[C@@H](CC=O)C[C@@H](C)C(=O)C=C[C@]2(C)O[C@H]2[C@@H]1C
39.1

Give reported viability value for COc1ccc(-c2cc3ccc(OCc4nn[nH]n4)cc3oc2=O)cc1
102

Give reported viability value for O=C(Nc1ccc2c(c1)OCO2)c1ccc(Br)c(S(=O)(=O)N2CCCC2)c1
94

Give reported viability value for CC(=O)Nc1ccc(S(=O)(=O)n2cnc(C)c2)cc1
104

Give reported viability value for CCOC(=O)C1CCN(C(=O)COc2ccc(S(=O)(=O)NC(C)C)cc2Cl)CC1
90.4

Give reported viability value for CCCCNC(=O)C(C#N)c1nc2ccccc2nc1N1CCCC1 (centres undefined)
100

Give reported viability value for O=C(Nc1sc2c(c1C(=O)NCc1ccco1)CCCC2)c1ccc2c(c1)OCO2
61.4

Give reported viability value for Cc1ccc(S(=O)(=O)NCCCNC(=O)N2CCOCC2)cc1
106

Give reported viability value for CCc1nc(SCc2cc(Cl)ccc2OC)n[nH]1
94.7
